- system under test: MAPK15 (human) (UniProt Q8TD08)
- Sequence (Q8TD08 whole entry, looked up): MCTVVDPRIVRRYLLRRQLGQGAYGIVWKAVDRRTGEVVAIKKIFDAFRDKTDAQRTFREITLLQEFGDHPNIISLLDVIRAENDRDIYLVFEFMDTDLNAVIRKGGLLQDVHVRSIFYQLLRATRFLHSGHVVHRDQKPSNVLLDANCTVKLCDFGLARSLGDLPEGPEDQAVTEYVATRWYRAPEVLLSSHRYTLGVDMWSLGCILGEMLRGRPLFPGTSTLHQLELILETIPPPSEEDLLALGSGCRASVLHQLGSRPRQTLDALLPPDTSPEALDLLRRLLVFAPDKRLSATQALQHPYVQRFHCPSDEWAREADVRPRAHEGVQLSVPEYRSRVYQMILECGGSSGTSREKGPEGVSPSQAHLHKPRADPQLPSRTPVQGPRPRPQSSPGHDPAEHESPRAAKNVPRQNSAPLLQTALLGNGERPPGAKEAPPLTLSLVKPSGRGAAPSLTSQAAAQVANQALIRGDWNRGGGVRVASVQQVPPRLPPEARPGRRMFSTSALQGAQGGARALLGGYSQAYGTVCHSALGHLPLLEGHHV
- experiment summary: radiometric filter-binding kinase assay
- condition context: compound 1.0 µM
Measured residual activity accompanies every entry in the list below.
parameter measured: residual activity (%)

1) CCn1c(-c2nonc2N)nc2cncc(CNC3CCNCC3)c21	62
2) N#Cc1c(C2CCNCC2)cc(-c2c(O)cccc2OCC2CC2)nc1N	59
3) CNc1nc(-c2ccc3c(N)n[nH]c3c2)cc(N2C[C@@H](C(=O)NC3CCCCC3)CC[C@H]2C)n1	99
4) CNC(=O)C1[C@H]2O[C@@](C)([C@@H]1N)n1c3ccccc3c3c4c(c5c6ccccc6n2c5c31)C(=O)NC4 (stereo partly specified)	11
5) O=C1Nc2nc(-c3c(O)cccc3OCC3CC3)cc(C3CCCNC3)c2CO1 (stereo unspecified)	53
6) Cc1ccc(=O)n(-c2ccccc2)c1	95
7) NCC(=O)Nc1ccc(-n2nc(C(F)(F)F)cc2-c2ccc3c(ccc4ccccc43)c2)cc1	79
8) CCCC(CCC)C(=O)O	90
9) CCCCCc1ccc(/C=C/[C@H](O)[C@@H](CO)NC)cc1	86
10) CN(C)C/C=C/C(=O)Nc1cccc(C(=O)Nc2ccc(Nc3nccc(-c4cccnc4)n3)cc2)c1	20
11) COc1ccc(N(C(=O)Nc2c(C)cccc2C)c2cc(Nc3ccc(N4CCN(C)CC4)cc3)ncn2)c(OC)c1	94
12) COc1cc2ncn(-c3cc(OCc4ccccc4S(C)(=O)=O)c(C#N)s3)c2cc1OC	65
13) Cc1cc(SCc2sc(-c3ccc(C(F)(F)F)cc3)nc2C)ccc1OCC(=O)O	103
14) O=C(N[C@@H](COc1ccc2[nH]c(=O)[nH]c2c1)c1ccccc1)c1cccn(Cc2ccc(F)c(F)c2)c1=O	89
15) NC(=O)c1cc2c(-c3cccc(-c4ccccc4)c3)cnc(N)c2s1	50
16) NC(=O)c1ccc(-c2ccc(Oc3cncc4sc(-c5nn[nH]n5)cc34)cc2)cc1	85
17) O=C(NOCC(O)CO)c1ccc(F)c(F)c1Nc1ccc(I)cc1Cl (stereo unspecified)	95
18) Cc1cccc(-c2nn(C(=S)Nc3ccccc3)cc2-c2ccnc3ccccc23)n1	93
19) Cn1nc(Nc2ccc(F)cc2)c2c(N)ncnc21	76
20) O=C(O)c1cc(N=Nc2ccc(S(=O)(=O)Nc3ccccn3)cc2)ccc1O	111
21) Cc1ccc(-c2ccc3c(ccc4sc5c(c43)NC[C@@H](C)NC5=O)n2)cn1	79
